Data provenance is the supplement of paper PMC11061612.

Tested on: GP5d (Colorectal Carcinoma)
EXPERIMENT_DESCRIPTION: Bliss excess, mean over the matrix (fraction); higher = more synergy;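 further: after 72 h of two-drug dosing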
Reported Bliss excess values for a set of molecules
MEASURED_QUANTITY: Bliss excess

MOLECULE	EXPERIMENTAL_SYSTEM	OBSERVED_MEASUREMENT
CCN(CCO)CCCOc1ccc2c(Nc3cc(CC(=O)Nc4cccc(F)c4)[nH]n3)ncnc2c1 [AZD2811] + C[C@@H]1COCCN1C2=NC(=NC(=C2)C3(CC3)[S@](=N)(=O)C)C4=C5C=CNC5=NC=C4 [AZD6738] (first compound max 1 µM, 7x7, partner max 10 µM)	GP5d (Colorectal Carcinoma)	-0.0575
CN(C)CCCOc1ccc(-c2ccc3ncc4c(c3c2)n(C2CCOCC2)c(=O)n4C)cn1 [AZD0156] + O=C(c1cc(Cc2n[nH]c(=O)c3ccccc23)ccc1F)N1CCN(C(=O)C2CC2)CC1 [Olaparib] (first compound max 3 µM, partner max 3 µM)	GP5d (Colorectal Carcinoma)	0.0682

----------
Tested on: REH (B-Lymphoblastic Leukemia)
EXPERIMENT_DESCRIPTION: Bliss excess, mean over the matrix (fraction); higher = more synergy
Reported Bliss excess values for a set of compounds

COMPOUND	Bliss excess
CCc1c2c(nc3ccc(O)cc13)-c1cc3c(c(=O)n1C2)COC(=O)[C@]3(O)CC [SN-38] + O=C(c1cc(Cc2n[nH]c(=O)c3ccccc23)ccc1F)N1CCN(C(=O)C2CC2)CC1 [Olaparib] (first compound max 0.3 µM, 7x7, partner max 10 µM)	0.0473
CN(CCO)CC[C@H](CSc1ccccc1)Nc1ccc(S(=O)(=O)NC(=O)c2ccc(N3CCC([C@@H](O)c4ccccc4-c4ccc(Cl)cc4)CC3)cc2)cc1S(=O)(=O)C(F)(F)F [AZD4320] + CS(=O)(=O)CCNCc1ccc(-c2ccc3ncnc(Nc4ccc(OCc5cccc(F)c5)c(Cl)c4)c3c2)o1 [Lapatinib] (first compound max 1 µM, 7x7, partner max 10 µM)	0.0721
NC1(C(=O)N[C@@H](CCO)c2ccc(Cl)cc2)CCN(c2ncnc3[nH]ccc23)CC1 [Capivasertib] + CCN(CCO)CCCOc1ccc2c(Nc3cc(CC(=O)Nc4cccc(F)c4)[nH]n3)ncnc2c1 [AZD2811] (first compound max 10 µM, 7x7, partner max 1 µM)	-0.0591
CC1(C)CCC(CN2CCN(c3ccc(C(=O)NS(=O)(=O)c4ccc(NCC5CCOCC5)c([N+](=O)[O-])c4)c(Oc4cnc5[nH]ccc5c4)c3)CC2)=C(c2ccc(Cl)cc2)C1 [Venetoclax] + CCN(CCO)CCCOc1ccc2c(Nc3cc(CC(=O)Nc4cccc(F)c4)[nH]n3)ncnc2c1 [AZD2811] (first compound max 1 µM, 7x7, partner max 1 µM)	0.18
CC1(C)CCC(CN2CCN(c3ccc(C(=O)NS(=O)(=O)c4ccc(NCC5CCOCC5)c([N+](=O)[O-])c4)c(Oc4cnc5[nH]ccc5c4)c3)CC2)=C(c2ccc(Cl)cc2)C1 [Venetoclax] + C1CN(CCC1(C(=O)N[C@@H](CCO)C2=CC=C(C=C2)Cl)N)C3=NC=NC4=C3C=CN4 [Capivasertib] (first compound max 1 µM, 7x7, partner max 3 µM)	0.0111
CC1(C)CCC(CN2CCN(c3ccc(C(=O)NS(=O)(=O)c4ccc(NCC5CCOCC5)c([N+](=O)[O-])c4)c(Oc4cnc5[nH]ccc5c4)c3)CC2)=C(c2ccc(Cl)cc2)C1 [Venetoclax] + CS(=O)(=O)CCNCc1ccc(-c2ccc3ncnc(Nc4ccc(OCc5cccc(F)c5)c(Cl)c4)c3c2)o1 [Lapatinib] (first compound max 1 µM, 7x7, partner max 10 µM)	0.0755
